pIC50: −log10 of the molar value.
The following compounds each carry a recorded pIC50 for UniProt:Q13547.
value type: pIC50

Field: example entries. Status: answers known.
- compound: "COc1ccc(CN2[C@@H](C(=O)NCCCCCCC(=O)NO)Cc3c([nH]c4ccccc34)[C@@H]2C2CC2)cc1 [Compound 13d]"
  assayed system: "UniProt:Q13547"
  pIC50: 8.06
- compound: "COc1ccc([C@@H]2N[C@@H](C(=O)NCCCCCCC(=O)NO)Cc3c2[nH]c2ccccc32)cc1 [Compound 13c]"
  assayed system: "UniProt:Q13547"
  pIC50: 7.33

(A) O=C(CCCCCCNC(=O)[C@H]1Cc2c([nH]c3ccccc23)[C@H](C2CC2)N1Cc1ccccc1)NO [Compound 13g]
(B) COc1ccc(CN2[C@@H](C(=O)NCCCCCC(=O)NO)Cc3c([nH]c4ccccc34)[C@@H]2C)cc1 [Compound 13e]
(C) COc1ccc(CN2[C@@H](C(=O)NCCCCCCC(=O)NO)Cc3c([nH]c4ccccc34)[C@@H]2C)cc1 [Compound 13f]
**Query** // ranking: key=pIC50, reverse=True Reply format: the labels, ordered as requested.
**Result** A, C, B
(A: 7.98, C: 7.65, B: 7.27)

* * *

Molecular target: UniProt Q13547
Assay: In vitro HDAC enzyme assay
Format: biochemical
Conditions: read-out: Inhibition% (inhibition rate, IR) against HDAC1, at a concentration of 500 nM; duplicate
value type: inhibition at 0.5 µM (%)

- compound: "O=C(CCCCCNC(=O)[C@H]1Cc2c([nH]c3ccccc23)[C@H](c2ccc(Cl)cc2)N1)NO [Compound 13h]"
  inhibition at 0.5 µM [%]: 51.3
- compound: "COc1ccc([C@H]2N[C@H](C(=O)NCCCCCCC(=O)NO)Cc3c2[nH]c2ccccc32)cc1OC"
  inhibition at 0.5 µM [%]: 46.5
- compound: "COc1ccc([C@@H]2N[C@@H](C(=O)NCCCCCC(=O)NO)Cc3c2[nH]c2ccccc32)cc1 [Compound 13b]"
  inhibition at 0.5 µM [%]: 49.2

(I) O=C(CCCCCCNC(=O)[C@@H]1Cc2c([nH]c3ccccc23)[C@@H](c2ccc(Cl)cc2)N1)NO
(II) COc1ccc([C@H]2N[C@H](C(=O)NCCCCCC(=O)NO)Cc3c2[nH]c2ccccc32)cc1
**Query** Lower value of inhibition at 0.5 µM belongs to which: I or II ? Answer by quoting the chosen item's label.
**Result** II

(P) COc1ccc(CN2[C@H](C)c3[nH]c4ccccc4c3C[C@H]2C(=O)NCCCCCC(=O)NO)cc1
(Q) COc1ccc(CN2[C@@H](C(=O)NCCCCCC(=O)NO)Cc3c([nH]c4ccccc34)[C@@H]2C)cc1 [Compound 13e]
(R) O=C(CCCCCNC(=O)[C@@H]1Cc2c([nH]c3ccccc23)[C@@H](c2ccccc2)N1)NO
**Query** // ranking: key=inhibition at 0.5 µM, reverse=True Reply format: the labels, ordered as requested.
**Result** Q, P, R

(a) COc1ccc(CN2[C@H](C)c3[nH]c4ccccc4c3C[C@H]2C(=O)NCCCCCCC(=O)NO)cc1
(b) COc1ccc([C@@H]2N[C@@H](C(=O)NCCCCCCC(=O)NO)Cc3c2[nH]c2ccccc32)cc1 [Compound 13c]
(c) COc1ccc(CN2[C@@H](C(=O)NCCCCCCC(=O)NO)Cc3c([nH]c4ccccc34)[C@@H]2C2CC2)cc1 [Compound 13d]
**Query** Order the entries by their reported inhibition at 0.5 µM, beginning at the minimum. Reply format: the labels, ordered as requested.
**Result** a, b, c

* * *

Target: HDAC1 (Homo sapiens)
Sequence (Q13547 whole entry): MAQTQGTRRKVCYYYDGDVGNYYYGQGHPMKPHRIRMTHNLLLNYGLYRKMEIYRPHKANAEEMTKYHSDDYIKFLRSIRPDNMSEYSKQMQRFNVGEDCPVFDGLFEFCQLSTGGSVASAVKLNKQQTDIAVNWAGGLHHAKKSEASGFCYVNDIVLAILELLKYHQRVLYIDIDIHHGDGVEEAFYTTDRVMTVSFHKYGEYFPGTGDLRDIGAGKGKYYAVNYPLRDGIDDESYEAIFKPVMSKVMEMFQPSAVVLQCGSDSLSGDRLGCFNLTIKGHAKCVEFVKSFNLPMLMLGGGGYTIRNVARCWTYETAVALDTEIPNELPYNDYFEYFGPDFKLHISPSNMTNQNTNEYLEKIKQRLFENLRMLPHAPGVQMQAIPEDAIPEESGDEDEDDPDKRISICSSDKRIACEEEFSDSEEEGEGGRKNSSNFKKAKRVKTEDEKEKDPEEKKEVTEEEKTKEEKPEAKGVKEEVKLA
Experiment: In vitro HDAC enzyme assay
Assay type: biochemical
Conditions: read-out: Inhibition% (inhibition rate, IR) against HDAC1, at a concentration of 500 nM; duplicate
value type: inhibition at 0.5 µM (%)

(I) O=C(CCCCCCNC(=O)[C@@H]1Cc2c([nH]c3ccccc23)[C@@H](C2CC2)N1)NO
(II) COc1ccc([C@H]2N[C@H](C(=O)NCCCCCCC(=O)NO)Cc3c2[nH]c2ccccc32)cc1
**Query** Lower value of inhibition at 0.5 µM belongs to which: I or II ? Answer by quoting the chosen item's label.
**Result** II
(II: 41.3%, I: 77.3%)

(a) O=C(CCCCCCNC(=O)[C@H]1Cc2c([nH]c3ccccc23)[C@H](c2ccc(Cl)cc2)N1)NO [Compound 13i]
(b) O=C(CCCCCCNC(=O)[C@H]1Cc2c([nH]c3ccccc23)[C@H](C2CC2)N1Cc1ccccc1)NO [Compound 13g]
(c) COc1ccc(CN2Cc3[nH]c4ccccc4c3C[C@H]2C(=O)NCCCCCCC(=O)NO)cc1
**Query** // ranking: key=inhibition at 0.5 µM, reverse=True Reply format: the labels, ordered as requested.
**Result** b, a, c

(a) COc1ccc(CN2Cc3[nH]c4ccccc4c3C[C@@H]2C(=O)NCCCCCCC(=O)NO)cc1 [Compound 13a]
(b) COc1ccc([C@@H]2N[C@@H](C(=O)NCCCCCCC(=O)NO)Cc3c2[nH]c2ccccc32)cc1OC [Compound 13j]
**Query** Given the listed records, identify the one among a and b with higher inhibition at 0.5 µM. Answer by quoting the chosen item's label.
**Result** b
(b: 72.5%, a: 44.3%)

* * *

Target: HDAC4 (Homo sapiens, UniProt P56524)
Sequence (P56524 whole entry): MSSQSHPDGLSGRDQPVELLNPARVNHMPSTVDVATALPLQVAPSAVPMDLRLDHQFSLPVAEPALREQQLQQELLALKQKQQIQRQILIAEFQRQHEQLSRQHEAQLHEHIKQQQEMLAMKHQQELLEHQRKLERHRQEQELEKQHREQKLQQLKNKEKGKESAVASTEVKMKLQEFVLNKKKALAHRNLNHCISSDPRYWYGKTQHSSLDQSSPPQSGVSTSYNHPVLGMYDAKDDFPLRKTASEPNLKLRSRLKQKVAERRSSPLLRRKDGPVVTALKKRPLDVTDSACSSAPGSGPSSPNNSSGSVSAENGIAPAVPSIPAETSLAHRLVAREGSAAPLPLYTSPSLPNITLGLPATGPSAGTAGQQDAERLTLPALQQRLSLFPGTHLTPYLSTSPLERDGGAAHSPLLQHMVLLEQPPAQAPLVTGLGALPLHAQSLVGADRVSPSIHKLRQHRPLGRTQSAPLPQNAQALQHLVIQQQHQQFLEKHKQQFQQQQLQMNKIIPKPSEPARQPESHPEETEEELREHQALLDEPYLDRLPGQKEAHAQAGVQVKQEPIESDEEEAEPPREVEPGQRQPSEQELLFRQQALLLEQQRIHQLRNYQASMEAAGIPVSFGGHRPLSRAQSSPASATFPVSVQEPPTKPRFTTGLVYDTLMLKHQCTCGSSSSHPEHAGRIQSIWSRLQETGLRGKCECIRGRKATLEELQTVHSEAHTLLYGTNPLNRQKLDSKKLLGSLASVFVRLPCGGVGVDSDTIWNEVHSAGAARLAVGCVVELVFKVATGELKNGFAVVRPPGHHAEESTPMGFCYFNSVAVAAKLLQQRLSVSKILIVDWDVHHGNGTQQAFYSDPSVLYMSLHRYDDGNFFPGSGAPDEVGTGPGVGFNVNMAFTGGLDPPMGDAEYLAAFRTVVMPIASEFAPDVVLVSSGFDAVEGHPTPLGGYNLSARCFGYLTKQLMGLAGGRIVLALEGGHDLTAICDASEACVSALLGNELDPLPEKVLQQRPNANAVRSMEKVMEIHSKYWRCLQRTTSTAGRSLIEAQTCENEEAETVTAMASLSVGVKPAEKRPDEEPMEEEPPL
value type: IC50

**Query** What value of IC50 on HDAC4 (Homo sapiens, UniProt P56524) does COc1ccc(CN2[C@@H](C(=O)NCCCCCCC(=O)NO)Cc3c([nH]c4ccccc34)[C@@H]2C2CC2)cc1 [Compound 13d] have?
**Result** > 50 µM

* * *

Target protein (sequence): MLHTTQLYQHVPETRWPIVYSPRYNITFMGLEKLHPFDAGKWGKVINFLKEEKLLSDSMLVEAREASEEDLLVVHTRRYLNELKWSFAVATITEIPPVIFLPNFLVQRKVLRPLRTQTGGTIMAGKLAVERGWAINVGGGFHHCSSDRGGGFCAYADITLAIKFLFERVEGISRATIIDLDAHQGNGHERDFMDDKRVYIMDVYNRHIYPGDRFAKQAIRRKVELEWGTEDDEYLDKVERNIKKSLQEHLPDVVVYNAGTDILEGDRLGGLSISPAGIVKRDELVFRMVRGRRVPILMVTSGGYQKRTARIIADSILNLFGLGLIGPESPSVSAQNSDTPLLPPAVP
value type: pIC50
Schema: pIC50 number; meaning minus log10 of the concentration expressed in molar units.

**Query** Quick check: pIC50 of COc1ccc(CN2[C@@H](C(=O)NCCCCCCC(=O)NO)Cc3c([nH]c4ccccc34)[C@@H]2C2CC2)cc1 [Compound 13d] ?
**Result** 5.74

* * *

Target: HDAC6 (Homo sapiens)
Sequence (Q9UBN7 whole entry): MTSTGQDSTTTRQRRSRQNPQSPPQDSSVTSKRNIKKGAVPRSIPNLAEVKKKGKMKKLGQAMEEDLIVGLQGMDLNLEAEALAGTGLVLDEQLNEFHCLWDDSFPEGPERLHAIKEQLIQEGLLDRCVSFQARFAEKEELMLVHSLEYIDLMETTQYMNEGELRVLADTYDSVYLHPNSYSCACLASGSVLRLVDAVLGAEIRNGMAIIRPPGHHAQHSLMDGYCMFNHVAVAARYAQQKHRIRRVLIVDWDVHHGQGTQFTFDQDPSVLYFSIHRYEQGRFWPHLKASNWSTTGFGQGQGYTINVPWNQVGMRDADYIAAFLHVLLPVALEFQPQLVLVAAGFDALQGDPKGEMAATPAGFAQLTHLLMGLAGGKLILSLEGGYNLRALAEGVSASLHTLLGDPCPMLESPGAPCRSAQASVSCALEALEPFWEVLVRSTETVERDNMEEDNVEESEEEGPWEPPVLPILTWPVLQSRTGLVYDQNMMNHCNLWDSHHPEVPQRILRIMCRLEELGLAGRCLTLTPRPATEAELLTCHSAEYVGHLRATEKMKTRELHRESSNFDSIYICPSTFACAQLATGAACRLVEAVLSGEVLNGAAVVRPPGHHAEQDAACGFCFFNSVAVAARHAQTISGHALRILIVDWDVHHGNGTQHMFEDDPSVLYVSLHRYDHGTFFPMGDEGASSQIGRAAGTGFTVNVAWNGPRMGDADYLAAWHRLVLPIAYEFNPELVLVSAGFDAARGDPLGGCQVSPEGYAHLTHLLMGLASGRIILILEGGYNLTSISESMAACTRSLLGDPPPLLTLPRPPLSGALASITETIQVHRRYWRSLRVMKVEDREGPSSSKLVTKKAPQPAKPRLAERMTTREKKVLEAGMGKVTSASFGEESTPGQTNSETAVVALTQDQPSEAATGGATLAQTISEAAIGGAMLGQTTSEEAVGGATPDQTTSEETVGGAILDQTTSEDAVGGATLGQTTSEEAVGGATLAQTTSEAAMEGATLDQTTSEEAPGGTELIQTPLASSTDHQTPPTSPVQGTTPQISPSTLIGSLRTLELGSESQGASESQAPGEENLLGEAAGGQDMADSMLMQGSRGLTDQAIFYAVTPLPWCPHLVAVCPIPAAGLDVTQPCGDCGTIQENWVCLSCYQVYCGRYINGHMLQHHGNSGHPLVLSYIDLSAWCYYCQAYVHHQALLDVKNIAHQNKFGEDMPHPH
value type: pIC50
Schema: pIC50 number; meaning minus log10 of the concentration expressed in molar units.

**Query** What value of pIC50 on HDAC6 (Homo sapiens) does COc1ccc(CN2[C@@H](C(=O)NCCCCCCC(=O)NO)Cc3c([nH]c4ccccc34)[C@@H]2C2CC2)cc1 [Compound 13d] have?
**Result** 8.35

* * *

Molecular target: HDAC5 (Homo sapiens)
Sequence (Q9UQL6 whole entry): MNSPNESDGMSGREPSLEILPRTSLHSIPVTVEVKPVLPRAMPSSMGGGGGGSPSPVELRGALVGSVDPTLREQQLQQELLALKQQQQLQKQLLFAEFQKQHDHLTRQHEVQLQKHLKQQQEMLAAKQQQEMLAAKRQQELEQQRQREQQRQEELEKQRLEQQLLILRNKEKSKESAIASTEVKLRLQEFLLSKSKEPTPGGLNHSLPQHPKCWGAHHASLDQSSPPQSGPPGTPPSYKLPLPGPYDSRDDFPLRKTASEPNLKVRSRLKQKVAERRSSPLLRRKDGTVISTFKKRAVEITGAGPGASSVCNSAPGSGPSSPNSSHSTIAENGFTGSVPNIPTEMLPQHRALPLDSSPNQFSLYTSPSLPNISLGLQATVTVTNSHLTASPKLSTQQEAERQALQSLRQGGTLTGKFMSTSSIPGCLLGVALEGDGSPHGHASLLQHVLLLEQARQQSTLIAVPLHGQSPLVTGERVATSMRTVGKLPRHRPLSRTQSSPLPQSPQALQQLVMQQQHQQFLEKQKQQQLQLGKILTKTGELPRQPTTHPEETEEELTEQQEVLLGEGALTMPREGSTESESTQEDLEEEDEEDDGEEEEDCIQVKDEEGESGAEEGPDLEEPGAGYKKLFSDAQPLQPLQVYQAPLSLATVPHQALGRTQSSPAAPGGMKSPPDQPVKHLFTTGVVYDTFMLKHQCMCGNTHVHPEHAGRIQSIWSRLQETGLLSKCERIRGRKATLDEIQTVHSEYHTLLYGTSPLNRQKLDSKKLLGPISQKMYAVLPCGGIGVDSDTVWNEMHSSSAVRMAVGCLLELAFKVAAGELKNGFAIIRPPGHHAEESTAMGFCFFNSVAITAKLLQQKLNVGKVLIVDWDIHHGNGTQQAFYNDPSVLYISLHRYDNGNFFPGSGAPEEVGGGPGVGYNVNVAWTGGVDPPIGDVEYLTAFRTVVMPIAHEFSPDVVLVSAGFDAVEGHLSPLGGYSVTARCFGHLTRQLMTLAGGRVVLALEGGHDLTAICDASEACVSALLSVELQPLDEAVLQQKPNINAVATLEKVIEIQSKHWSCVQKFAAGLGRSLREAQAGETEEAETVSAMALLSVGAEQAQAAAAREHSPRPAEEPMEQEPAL
pIC50: −log10 of the molar value.
value type: pIC50

**Query** Quick check: pIC50 of COc1ccc(CN2[C@@H](C(=O)NCCCCCCC(=O)NO)Cc3c([nH]c4ccccc34)[C@@H]2C2CC2)cc1 [Compound 13d] ?
**Result** < 4.30

* * *

Test system: colon cancer cell line HCT-116
Experiment: Cell viability assay
Assay type: cell-based
Settings: Homo sapiens, HCT-116, 72 h, read-out: Antiproliferative IC50 HCT116
value type: IC50 (µM)

Field: example entries. Status: answers known.
- molecule: "O=C(CCCCCCNC(=O)[C@H]1Cc2c([nH]c3ccccc23)[C@H](C2CC2)N1Cc1ccccc1)NO [Compound 13g]"
  IC50 (µM): 3.2
- molecule: "O=C(CCCCCCNC(=O)c1cnc(N(c2ccccc2)c2ccccc2)nc1)NO [ACY-1215, reference compound]"
  IC50 (µM): 3.87
- molecule: "COc1ccc(CN2[C@@H](C(=O)NCCCCCCC(=O)NO)Cc3c([nH]c4ccccc34)[C@@H]2C)cc1 [Compound 13f]"
  IC50 (µM): 4.22
- molecule: "O=C(CCCCCCNC(=O)[C@H]1Cc2c([nH]c3ccccc23)[C@H](c2ccc(Cl)cc2)N1)NO [Compound 13i]"
  IC50 (µM): 7.55

(P) COc1ccc(CN2[C@@H](C(=O)NCCCCCCC(=O)NO)Cc3c([nH]c4ccccc34)[C@@H]2C2CC2)cc1 [Compound 13d]
(Q) COc1ccc(CN2[C@@H](C(=O)NCCCCCC(=O)NO)Cc3c([nH]c4ccccc34)[C@@H]2C)cc1 [Compound 13e]
**Query** Given the listed records, identify the one among P and Q with higher IC50. Answer by quoting the chosen item's label.
**Result** Q
